target or test system: GKRP (Glucokinase Regulatory Protein) with human His-hepatic GK (Homo sapiens, UniProt Q14397)
Sequence (Q14397 whole entry): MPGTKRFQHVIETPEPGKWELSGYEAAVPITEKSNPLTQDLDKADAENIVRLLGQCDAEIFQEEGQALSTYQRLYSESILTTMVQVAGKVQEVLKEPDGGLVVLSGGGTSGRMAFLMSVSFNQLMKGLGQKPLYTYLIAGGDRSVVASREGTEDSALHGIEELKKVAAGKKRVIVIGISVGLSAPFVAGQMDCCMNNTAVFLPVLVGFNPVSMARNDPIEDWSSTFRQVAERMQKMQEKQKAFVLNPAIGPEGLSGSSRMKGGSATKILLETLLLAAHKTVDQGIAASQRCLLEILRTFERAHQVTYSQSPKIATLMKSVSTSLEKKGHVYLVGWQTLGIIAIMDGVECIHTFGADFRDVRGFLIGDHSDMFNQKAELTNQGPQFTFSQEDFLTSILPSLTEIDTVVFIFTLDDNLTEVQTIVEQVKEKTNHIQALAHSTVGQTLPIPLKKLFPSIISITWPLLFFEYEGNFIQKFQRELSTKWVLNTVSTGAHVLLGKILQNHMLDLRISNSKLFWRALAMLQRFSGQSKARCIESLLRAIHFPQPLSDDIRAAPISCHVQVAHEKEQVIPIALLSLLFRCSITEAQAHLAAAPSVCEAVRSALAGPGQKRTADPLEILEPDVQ
protocol details: GKRP LC MS/MS Biochemical Assay
conditions used: GK-GKRP EC50 (LC MS/MS), 13C-glucose-6-phosphate formation; 1 μM GKRP (10×), 30 nM GK (5×)
measurement name: pEC50
One number for each entry, as −log10 of the molar value.

Recorded results for 5 compounds are shown here.
compound	reading
CC(O)(c1ccc(N2CCN(S(=O)(=O)c3ccccc3)CC2)cc1)C(F)(F)F (racemic) [Example 24]	5.40
CC(O)(c1ccc(N2CCN(S(=O)(=O)c3cccs3)CC2COCc2cccnc2)cc1)C(F)(F)F (mixture of isomers) [Example 59]	5.31
C[C@H]1CN(S(=O)(=O)c2nnc(N)s2)CCN1c1ccc(C(C)(O)C(F)(F)F)cc1 (mixture of isomers) [Example 35]	5.25
O=S(=O)(c1cccc(Cl)c1)N1CCN(c2ccc(C(O)(C(F)(F)F)C(F)(F)F)cc2)CC1 [Example 9]	5.43
CC(C)(O)C#Cc1cc(-c2ccc(C(C)(O)C(F)(F)F)cc2)ccc1S(=O)(=O)c1ccccc1 (racemic) [Example 20]	5.65

Your task in this section: give pEC50 for each listed record.
1. O=S(=O)(c1cccs1)N1CCN(c2ccc(C(O)(C(F)(F)F)C(F)(F)F)cc2-c2ccc(O)cc2)CC1 [Example 74]
2. CC(O)(c1ccc(N2CCN(S(=O)(=O)c3cccs3)CC2CC2CCOCC2)cc1)C(F)(F)F (single isomer, unassigned) [Example 37 Peak #2]

RESULT:
5.86
6.89
